log10 IC50 for assorted compounds
# target_or_test_system: EGFR del19/T790M/C797S (Homo sapiens, UniProt P00533, C797S/DEL746-750/T790M)
# Sequence (P00533 with tags, fused parts or gaps DEL746-750/T790M/C797S): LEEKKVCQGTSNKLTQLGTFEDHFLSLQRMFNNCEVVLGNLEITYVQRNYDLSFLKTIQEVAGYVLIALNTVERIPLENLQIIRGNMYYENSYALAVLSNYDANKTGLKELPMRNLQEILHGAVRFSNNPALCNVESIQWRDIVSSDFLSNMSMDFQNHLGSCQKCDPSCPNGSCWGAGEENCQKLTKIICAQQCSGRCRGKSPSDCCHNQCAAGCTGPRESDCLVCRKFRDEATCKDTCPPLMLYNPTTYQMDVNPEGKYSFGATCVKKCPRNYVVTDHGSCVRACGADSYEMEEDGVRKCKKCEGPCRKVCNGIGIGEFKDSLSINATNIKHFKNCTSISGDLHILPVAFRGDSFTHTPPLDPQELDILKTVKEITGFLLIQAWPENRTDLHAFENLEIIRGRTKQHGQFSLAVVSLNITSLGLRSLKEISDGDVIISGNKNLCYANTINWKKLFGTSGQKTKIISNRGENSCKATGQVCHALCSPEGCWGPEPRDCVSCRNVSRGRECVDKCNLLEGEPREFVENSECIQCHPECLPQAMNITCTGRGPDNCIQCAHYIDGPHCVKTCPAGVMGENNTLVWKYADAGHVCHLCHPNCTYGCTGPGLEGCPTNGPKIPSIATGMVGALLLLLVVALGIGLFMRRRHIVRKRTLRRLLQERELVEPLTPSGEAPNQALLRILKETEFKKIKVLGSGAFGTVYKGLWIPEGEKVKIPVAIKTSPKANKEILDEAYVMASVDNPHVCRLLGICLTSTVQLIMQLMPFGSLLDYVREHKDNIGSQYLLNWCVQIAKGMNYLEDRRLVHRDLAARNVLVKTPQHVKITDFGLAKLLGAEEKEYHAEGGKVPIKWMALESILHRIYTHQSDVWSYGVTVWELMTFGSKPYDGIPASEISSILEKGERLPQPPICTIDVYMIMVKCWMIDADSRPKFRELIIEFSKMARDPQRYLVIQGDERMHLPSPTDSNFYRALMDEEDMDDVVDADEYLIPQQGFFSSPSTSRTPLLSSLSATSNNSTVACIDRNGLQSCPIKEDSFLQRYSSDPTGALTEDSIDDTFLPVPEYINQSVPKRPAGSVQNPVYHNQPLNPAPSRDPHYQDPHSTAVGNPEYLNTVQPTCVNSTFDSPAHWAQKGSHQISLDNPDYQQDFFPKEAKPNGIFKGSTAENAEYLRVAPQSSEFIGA
# test: Biochemical EGFR kinase assay (Lance Ultra TR-FRET), triple mutant del19/T790M/C797S
# test_context: IC50 del19/T790M/C797S (nM) 100 μM ATP, 100 μM ATP
Could you please treat all values as log10 of IC50 in nM?

Study these solved cases before continuing.
CC(C)(O)c1nc(-c2cnc(Nc3ccnc(-c4cnn(S(=O)(=O)C5CC5)c4)n3)cc2N[C@H]2CC[C@@](C)(O)CC2)cs1	0.60
CN(C)C[C@H]1CC[C@@H](Nc2cc(Nc3ccnc(-c4cnn(S(=O)(=O)C5CC5)c4)n3)ncc2-c2ccn(C(F)F)n2)CC1	-1.00
O=S(=O)(C1CC1)n1cc(-c2nccc(Nc3cc(N[C@@H]4CC[C@@H](O)C4)c(-c4ccn(C(F)F)n4)cn3)n2)cn1	0.08

(Q) Fill blank: measured log10 IC50 of the compound Cn1ccc(-c2cnc(Nc3ccnc(-c4cnn(S(=O)(=O)C5CC5)c4)n3)cc2N[C@H]2CC[C@@H](C(C)(C)O)CC2)n1 is ____.
(A) 0.15

(Q) Fill blank: measured log10 IC50 of the compound CN(C)C[C@H]1CC[C@H](CNc2cc(Nc3ccnc(-c4cnn(S(=O)(=O)C5CC5)c4)n3)ncc2-c2ccn(C(F)F)n2)CC1 is ____.
(A) -0.22

(Q) Fill blank: measured log10 IC50 of the compound CC(C)c1cc(-c2cnc(Nc3ccnc(-c4cnn(S(=O)(=O)C5CC5)c4)n3)cc2N[C@H]2CC[C@@](C)(O)CC2)on1 is ____.
(A) 0.00
